The values you see were collected from patent US9045482B2.

# measured target: human recombinant histamine H1 receptor (Homo sapiens, UniProt P35367)
# Sequence (P35367 whole entry): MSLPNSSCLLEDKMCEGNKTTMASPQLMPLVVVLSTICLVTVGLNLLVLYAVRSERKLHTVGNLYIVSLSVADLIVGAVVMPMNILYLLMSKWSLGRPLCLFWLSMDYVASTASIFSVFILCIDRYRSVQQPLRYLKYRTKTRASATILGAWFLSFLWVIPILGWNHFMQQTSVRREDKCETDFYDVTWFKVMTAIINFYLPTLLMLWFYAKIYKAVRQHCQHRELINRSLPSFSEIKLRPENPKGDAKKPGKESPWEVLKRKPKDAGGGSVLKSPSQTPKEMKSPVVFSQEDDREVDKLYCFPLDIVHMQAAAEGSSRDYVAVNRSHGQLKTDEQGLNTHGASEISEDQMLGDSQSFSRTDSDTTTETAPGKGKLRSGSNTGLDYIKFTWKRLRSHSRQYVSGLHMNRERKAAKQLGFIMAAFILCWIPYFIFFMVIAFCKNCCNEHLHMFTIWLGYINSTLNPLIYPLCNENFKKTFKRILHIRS
# assay: Histamine H1 radioligand binding ([3H]Pyrilamine)
# particulars: 1 μM; read-out: Binding data (Percentage Inhibition) Histamine Binding H1
measure: inhibition at 1 µM
State the result as a value with its unit after it.

Query: Give recorded inhibition at 1 µM with human recombinant histamine H1 receptor (Homo sapiens, UniProt P35367) for the following compound: Fc1ccc(CCn2c3c(c4cc(Cl)ccc42)C2CCCN2CC3)cc1 (stereo not drawn)
Response: -2%

Query: Give recorded inhibition at 1 µM with human recombinant histamine H1 receptor (Homo sapiens, UniProt P35367) for the following compound: CC(=Cn1c2c(c3cc(C)ccc31)C1CCCN1CC2)c1ccc(F)cc1 (stereo in doubt)
Response: 41%

Query: Give recorded inhibition at 1 µM with human recombinant histamine H1 receptor (Homo sapiens, UniProt P35367) for the following compound: CC(=Cn1c2c(c3cc(C)ccc31)CN1CCCCC1C2)c1ccc(F)cc1 (stereo in doubt)
Response: 76%

Query: Give recorded inhibition at 1 µM with human recombinant histamine H1 receptor (Homo sapiens, UniProt P35367) for the following compound: CC(=Cn1c2c(c3cc(C)ccc31)C1CCCCN1CC2)c1ccc(F)cc1 (stereo in doubt)
Response: 28%

Query: Give recorded inhibition at 1 µM with human recombinant histamine H1 receptor (Homo sapiens, UniProt P35367) for the following compound: Fc1ccc(CCn2c3c(c4cc(Cl)ccc42)CN2CCCC2C3)cc1 (stereo not drawn)
Response: 9%

Query: Give recorded inhibition at 1 µM with human recombinant histamine H1 receptor (Homo sapiens, UniProt P35367) for the following compound: CC(=Cn1c2c(c3cc(C)ccc31)CN1CCCC1C2)c1ccc(F)cc1 (stereo in doubt)
Response: 88%

* * *

# measured target: rat adrenergic α1A receptor (Rattus norvegicus, UniProt P43140)
# Construct: rat adrenergic α1A receptor obtained from Wistar Rat submaxillary glands; from tissue; host or cells: Wistar Rat submaxillary glands
# Sequence (P43140 whole entry): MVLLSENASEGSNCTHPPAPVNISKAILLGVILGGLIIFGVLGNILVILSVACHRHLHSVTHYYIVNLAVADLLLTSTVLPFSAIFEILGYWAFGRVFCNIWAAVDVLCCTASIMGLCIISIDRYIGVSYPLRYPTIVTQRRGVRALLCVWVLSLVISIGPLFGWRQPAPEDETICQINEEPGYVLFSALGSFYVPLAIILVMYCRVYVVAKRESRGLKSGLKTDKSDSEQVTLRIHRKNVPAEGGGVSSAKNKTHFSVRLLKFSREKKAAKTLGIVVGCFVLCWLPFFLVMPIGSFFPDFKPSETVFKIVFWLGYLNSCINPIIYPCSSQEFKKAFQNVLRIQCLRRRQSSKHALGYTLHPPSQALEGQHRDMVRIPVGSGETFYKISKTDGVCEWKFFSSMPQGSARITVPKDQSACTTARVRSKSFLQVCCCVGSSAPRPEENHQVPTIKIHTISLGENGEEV
# assay: Adrenergic α1A radioligand binding ([3H]Prozosin)
# Set-up: species or system Wistar Rat
# particulars: 0.1 μM ligand conc.
I'd appreciate it if you could supply Percent Inhibition of ligand binding Adrenergic α1A values for the items below.
// return numeric value only (unit: %, not printed)

Query: Record request: Percent Inhibition of ligand binding Adrenergic α1A value, item O=C(Cn1c2c(c3cccnc31)C1CCCN1CC2)N1CCCCC1 (stereo not shown) [Compound 38]
Response: −6

Query: Record request: Percent Inhibition of ligand binding Adrenergic α1A value, item O=C(Cn1c2c(c3cccnc31)CN1CCCC1C2)N1CCCCC1 (stereo not shown) [Compound 37]
Response: −6

Query: Record request: Percent Inhibition of ligand binding Adrenergic α1A value, item C/C(=C\n1c2c(c3cc(C)ccc31)C1CCCN1CC2)c1ccc(C)nc1 (stereo not shown) [Compound 32]
Response: 55

Query: Record request: Percent Inhibition of ligand binding Adrenergic α1A value, item Cc1cnc2c(c1)c1c(n2CCc2ccc(C)nc2)CC2CCCN2C1 (stereo not shown) [Compound 36]
Response: 26

Query: Record request: Percent Inhibition of ligand binding Adrenergic α1A value, item Cc1cnc2c(c1)c1c(n2CCc2ccc(C)nc2)CCN2CCCC12 (stereo not shown) [Compound 33]
Response: 26

Query: Record request: Percent Inhibition of ligand binding Adrenergic α1A value, item Cc1ccc(CCn2c3c(c4cccnc42)CN2CCCC2C3)cn1 (stereo not shown) [Compound 35]
Response: −2

Query: Record request: Percent Inhibition of ligand binding Adrenergic α1A value, item Cc1ccc(CCn2c3c(c4cccnc42)C2CCCN2CC3)cn1 (stereo not shown) [Compound 34]
Response: −9

* * *

I'd appreciate it if you could supply Percent Inhibition of ligand binding Serotonin 5-HT6 values for the items below.
# measured target: human recombinant serotonin (5-Hydroxytryptamine) 5-HT6 receptor (Homo sapiens, UniProt P50406)
# Construct: expressed in transfected cells; host or cells: human HeLa cells
# Sequence (P50406 whole entry): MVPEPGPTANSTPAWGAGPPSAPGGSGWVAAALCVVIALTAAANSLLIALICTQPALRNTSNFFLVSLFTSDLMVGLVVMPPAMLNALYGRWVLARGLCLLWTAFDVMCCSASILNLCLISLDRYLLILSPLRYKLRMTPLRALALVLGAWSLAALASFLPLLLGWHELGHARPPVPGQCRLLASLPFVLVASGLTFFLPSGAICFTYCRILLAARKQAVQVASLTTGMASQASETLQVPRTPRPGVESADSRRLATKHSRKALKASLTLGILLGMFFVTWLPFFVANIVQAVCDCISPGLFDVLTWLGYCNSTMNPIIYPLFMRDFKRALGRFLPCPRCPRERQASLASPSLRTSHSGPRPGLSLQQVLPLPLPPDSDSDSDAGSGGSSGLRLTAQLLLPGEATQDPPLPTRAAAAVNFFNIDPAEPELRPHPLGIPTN
# assay: Serotonin 5-HT6 radioligand binding ([3H]LSD)
# particulars: 0.1 μM ligand concentration
// return numeric value only (unit: %, not printed)

Query: Record request: Percent Inhibition of ligand binding Serotonin 5-HT6 value, item Cc1cnc2c(c1)c1c(n2CC(=O)N2CCCCC2)CCN2CCCC12 (stereo not shown)
Response: 8

Query: Record request: Percent Inhibition of ligand binding Serotonin 5-HT6 value, item Cc1cnc2c(c1)c1c(n2CCc2ccc(C(F)(F)F)nc2)CC2CCCN2C1 (stereo not shown)
Response: 9

Query: Record request: Percent Inhibition of ligand binding Serotonin 5-HT6 value, item FC(F)(F)c1ccc(CCn2c3c(c4cccnc42)C2CCCN2CC3)cn1 (stereo not shown)
Response: 1

Query: Record request: Percent Inhibition of ligand binding Serotonin 5-HT6 value, item CC(=Cn1c2c(c3cc(C)ccc31)C1CCCN1CC2)c1ccc(F)cc1 (stereo in doubt)
Response: 100

* * *

# measured target: human recombinant adrenergic α2C receptor (Homo sapiens)
# Construct: expressed in transfected cells; host or cells: insect Sf9 cells
# Sequence (P18825 whole entry): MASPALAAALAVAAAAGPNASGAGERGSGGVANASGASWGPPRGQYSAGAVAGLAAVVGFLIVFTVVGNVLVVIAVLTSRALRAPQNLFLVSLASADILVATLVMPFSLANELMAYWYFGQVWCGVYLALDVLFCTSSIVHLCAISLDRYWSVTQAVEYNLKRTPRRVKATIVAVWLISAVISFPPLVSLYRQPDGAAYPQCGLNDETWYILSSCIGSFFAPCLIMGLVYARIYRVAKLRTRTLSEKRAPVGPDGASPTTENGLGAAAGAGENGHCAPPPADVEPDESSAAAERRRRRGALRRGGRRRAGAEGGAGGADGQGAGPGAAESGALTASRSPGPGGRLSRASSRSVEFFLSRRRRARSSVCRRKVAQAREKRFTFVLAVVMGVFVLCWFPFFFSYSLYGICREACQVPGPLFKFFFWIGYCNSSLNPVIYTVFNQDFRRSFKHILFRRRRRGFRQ
# assay: Adrenergic α2C radioligand binding ([3H]MK-912)
# particulars: 0.1 μM ligand conc.
I'd appreciate it if you could supply Percent Inhibition of ligand binding Adrenergic α2C values for the items below.
// return numeric value only (unit: %, not printed)

Query: Record request: Percent Inhibition of ligand binding Adrenergic α2C value, item Cc1cnc2c(c1)c1c(n2CCc2ccc(C)nc2)CCN2CCCC12 (stereo not shown)
Response: 4

Query: Record request: Percent Inhibition of ligand binding Adrenergic α2C value, item O=C(Cn1c2c(c3cccnc31)CN1CCCC1C2)N1CCCCC1 (stereo not shown)
Response: 4

Query: Record request: Percent Inhibition of ligand binding Adrenergic α2C value, item Cc1cnc2c(c1)c1c(n2CCc2ccc(C)nc2)CC2CCCN2C1 (stereo not shown)
Response: 3

Query: Record request: Percent Inhibition of ligand binding Adrenergic α2C value, item C/C(=C\n1c2c(c3cc(C)ccc31)C1CCCN1CC2)c1ccc(C)nc1 (stereo not shown)
Response: 45

Query: Record request: Percent Inhibition of ligand binding Adrenergic α2C value, item Cc1ccc(CCn2c3c(c4cccnc42)C2CCCN2CC3)cn1 (stereo not shown)
Response: 1

Query: Record request: Percent Inhibition of ligand binding Adrenergic α2C value, item Cc1ccc(CCn2c3c(c4cccnc42)CN2CCCC2C3)cn1 (stereo not shown)
Response: 2

Query: Record request: Percent Inhibition of ligand binding Adrenergic α2C value, item O=C(Cn1c2c(c3cccnc31)C1CCCN1CC2)N1CCCCC1 (stereo not shown)
Response: −6

* * *

I'd appreciate it if you could supply Percent Inhibition of ligand binding Serotonin 5-HT6 values for the items below.
# measured target: human recombinant serotonin (5-Hydroxytryptamine) 5-HT6 receptor (Homo sapiens, UniProt P50406)
# Construct: expressed in transfected cells; host or cells: human HeLa cells
# assay: Serotonin 5-HT6 radioligand binding ([3H]LSD)
# particulars: 0.1 μM ligand concentration
// return numeric value only (unit: %, not printed)

Query: Record request: Percent Inhibition of ligand binding Serotonin 5-HT6 value, item O=C(Cn1c2c(c3cccnc31)C1CCCN1CC2)N1CCCCC1 (centres unmarked) [Compound 38]
Response: −8

Query: Record request: Percent Inhibition of ligand binding Serotonin 5-HT6 value, item C/C(=C\n1c2c(c3cc(C)ccc31)C1CCCN1CC2)c1ccc(C)nc1 (centres unmarked) [Compound 32]
Response: 25

Query: Record request: Percent Inhibition of ligand binding Serotonin 5-HT6 value, item Cc1cnc2c(c1)c1c(n2CC(=O)N2CCCCC2)CC2CCCN2C1 (centres unmarked) [Compound 42]
Response: 2

Query: Record request: Percent Inhibition of ligand binding Serotonin 5-HT6 value, item Cc1ccc(CCn2c3c(c4cccnc42)C2CCCN2CC3)cn1 (centres unmarked) [Compound 34]
Response: 5

Query: Record request: Percent Inhibition of ligand binding Serotonin 5-HT6 value, item Cc1ccc(CCn2c3c(c4cccnc42)CN2CCCC2C3)cn1 (centres unmarked) [Compound 35]
Response: −3

* * *

I'd appreciate it if you could supply Percent Inhibition of ligand binding Serotonin 5-HT6 values for the items below.
# measured target: human recombinant serotonin (5-Hydroxytryptamine) 5-HT6 receptor (Homo sapiens)
# Construct: expressed in transfected cells; host or cells: human HeLa cells
# assay: Serotonin 5-HT6 radioligand binding ([3H]LSD)
# particulars: 1 μM ligand concentration
# Method: Compounds of the invention were incubated with 1.5 nM [3H]Lysergic acid diethylamide (LSD) for 120 min at 37° C. […] Receptor proteins were filtered and washed, the filters were then counted to determine [3H]LSD specifically bound. Compounds were screened at 1 μM or lower, using 1% DMSO as vehicle. Biochemical assay results are presented as the percent inhibition of specific binding in Table 4.
State the result as a value with its unit after it.

Query: Record request: Percent Inhibition of ligand binding Serotonin 5-HT6 value, item Fc1ccc(CCn2c3c(c4cc(Cl)ccc42)C2CCCN2CC3)cc1 (stereo not drawn) [Compound 1]
Response: 19%

Query: Record request: Percent Inhibition of ligand binding Serotonin 5-HT6 value, item Fc1ccc(CCn2c3c(c4cc(Cl)ccc42)CN2CCCC2C3)cc1 (stereo not drawn) [Compound 2]
Response: 19%

Query: Record request: Percent Inhibition of ligand binding Serotonin 5-HT6 value, item CC(=Cn1c2c(c3cc(C)ccc31)CN1CCCC1C2)c1ccc(F)cc1 (stereo in doubt) [Compound 3]
Response: 101%

Query: Record request: Percent Inhibition of ligand binding Serotonin 5-HT6 value, item CC(=Cn1c2c(c3cc(C)ccc31)C1CCCCN1CC2)c1ccc(F)cc1 (stereo in doubt) [Compound 6]
Response: 105%

Query: Record request: Percent Inhibition of ligand binding Serotonin 5-HT6 value, item CC(=Cn1c2c(c3cc(C)ccc31)C1CCCN1CC2)c1ccc(F)cc1 (stereo in doubt) [Compound 4]
Response: 103%

Query: Record request: Percent Inhibition of ligand binding Serotonin 5-HT6 value, item CC(=Cn1c2c(c3cc(C)ccc31)CN1CCCCC1C2)c1ccc(F)cc1 (stereo in doubt) [Compound 5]
Response: 96%
